Here, each record is paired with measured antagonist pA2 (Schild, agonist NDP-MSH) data.
ASSAYED SYSTEM: mouse melanocortin-3 receptor (mouse, UniProt P33033 1-323)
Sequence (P33033 whole entry): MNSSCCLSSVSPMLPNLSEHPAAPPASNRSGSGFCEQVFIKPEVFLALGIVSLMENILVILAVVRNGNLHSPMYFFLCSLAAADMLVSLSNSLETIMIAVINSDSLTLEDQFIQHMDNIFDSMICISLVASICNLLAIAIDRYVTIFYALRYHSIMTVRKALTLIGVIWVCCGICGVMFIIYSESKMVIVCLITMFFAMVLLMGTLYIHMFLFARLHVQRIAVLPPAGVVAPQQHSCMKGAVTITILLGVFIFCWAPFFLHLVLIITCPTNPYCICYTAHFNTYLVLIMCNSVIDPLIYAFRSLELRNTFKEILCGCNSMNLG
TEST: cell-based or functional assay
Square brackets hold non-standard residues; d marks the D form. Nle = CCCC[C@H](N)C(=O)O

Example results:
binder="cyclo(PRFFNDF[dP]) (SMILES N=C(N)NCCC[C@@H]1NC(=O)[C@@H]2CCCN2C(=O)[C@H]2CCCN2C(=O)[C@H](Cc2ccccc2)NC(=O)[C@H](CC(=O)O)NC(=O)[C@H](CC(N)=O)NC(=O)[C@H](Cc2ccccc2)NC(=O)[C@H](Cc2ccccc2)NC1=O) [c[Pro-Arg-Phe-Phe-Asn-Asp-Phe-DPro]]" observed_result="< 5.5"
binder="cyclo(PRFF[Nle]AF[dP]) [c[Pro-Arg-Phe-Phe-Nle-Ala-Phe-DPro]]" observed_result="< 5.5"

Exercise: What value of antagonist pA2 (Schild, agonist NDP-MSH) has been reported for the following binder? cyclo(PRFFNHF[dP]) (SMILES N=C(N)NCCC[C@@H]1NC(=O)[C@@H]2CCCN2C(=O)[C@H]2CCCN2C(=O)[C@H](Cc2ccccc2)NC(=O)[C@H](Cc2c[nH]cn2)NC(=O)[C@H](CC(N)=O)NC(=O)[C@H](Cc2ccccc2)NC(=O)[C@H](Cc2ccccc2)NC1=O) [c[Pro-Arg-Phe-Phe-Asn-His-Phe-DPro]]
Key: < 5.5
